# PROCEDURE_DETAILS: RAM pathway blockade in budding yeast – dse1pr::URA3 reporter, 5-FOA selection, pilot screen (AID 869);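 also: 0% = DMSO wells with no growth and 100% = 10 µM 1-NA-PP1 with full growth; RAM network block rescues cells from 5-FOA so hits raise OD615 growth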
# APPLIED_CONDITIONS: S. cerevisiae dse1pr::URA3 5-FOA growth, OD615, 2 d, at 10 µM, stronger effect = higher value
So I've got a bunch of compounds here, and I need their inhibition values.
Give bare numbers, in %.

Here's what some known entries look like.
COMPOUND	VALUE_UNITS	inhibition
Cc1ccc2occ(CN3CC4CC(C3)c3cccc(=O)n3C4)c(=O)c2c1 (centres undefined)	%	1.96
O=C(Cc1ccc(Br)cc1)N1CCN(Cc2ccccc2)CC1	%	1.23
CCOC(=O)C1CCN(/C=C2/C(=O)NC(=O)N(c3ccc(OCC)cc3)C2=O)CC1	%	1.87

Can you give me inhibition for all of these, one by one?
1. CN1CCN(c2ccc(NC(=O)C(C)(C)C)cc2)CC1
2. O=C(CN1CCOCC1)c1ccc2cc[nH]c2c1
3. CC12CN3CC(C)(CN(C1)P3(=O)Oc1ccccc1)C2=O (centres undefined)
4. COc1ccc(CC2C(=O)NC(=O)N(c3ccccc3)C2=O)c(OC)c1 (centres undefined)

[1.54, 0.035, 2.22, -0.495]

Parameters: items (list). Returns: inhibition for each item.
1. CCOc1ccc(-n2c(CC)nc3ccccc3c2=O)cc1
2. CCN(c1ccc(C(O)(C(=O)OC)C(F)(F)F)cc1)S(=O)(=O)c1ccccc1 (centres undefined)
3. CCCCCP(=O)(O)c1ccccc1
4. CP(C)(=O)CCC(=O)O

1. 1.81
2. -0.62
3. 0.735
4. 0.42

Hello, I would appreciate it if you could give inhibition for each entry below.
1. COc1cc2c(cc1OC)-c1c(OC)c(OC)cc3c1C(C2)N(C)CC3 (centres undefined)
2. CN1CCN(C(=O)COc2ccc(-c3nc4ccccc4s3)cc2)CC1
3. COc1ccc(C2SCC(=O)Nc3c2c(=O)[nH]n3C2CCCCCC2)cc1OC (centres undefined)
4. O=c1cccc2n1CC1CC2CN(C(c2ccccc2)c2sc3ncnn3c2O)C1 (centres undefined)
5. Cc1nc2cc(C(F)(F)F)ccc2n1C1CCN(Cc2nnnn2Cc2cccs2)CC1
6. CN(C)C(=O)Oc1ccc(-c2nnco2)cc1

1. -0.365
2. 2.09
3. 0.915
4. 1.01
5. 1.01
6. 1.48

# return inhibition for each item in the list
1. Cc1cc(OCC(=O)OC(C)(C)C)c2c3c(c(=O)oc2c1)CCC3
2. Cc1cccc(-n2c(-c3ccco3)nc3ccccc3c2=O)n1
3. O=c1cccc2n1CC1CC2CN(c2ncnc3c2cnn3-c2ccccc2)C1 (centres undefined)

[2.17, 0.505, 1.7]

* * *

Would you mind telling me the reported inhibition of each entry?
# TARGET_SYSTEM: Pantothenate synthetase (Mycobacterium tuberculosis (strain ATCC 25618 / H37Rv)) (UniProt P9WIL5)
# Sequence (P9WIL5 whole entry, looked up): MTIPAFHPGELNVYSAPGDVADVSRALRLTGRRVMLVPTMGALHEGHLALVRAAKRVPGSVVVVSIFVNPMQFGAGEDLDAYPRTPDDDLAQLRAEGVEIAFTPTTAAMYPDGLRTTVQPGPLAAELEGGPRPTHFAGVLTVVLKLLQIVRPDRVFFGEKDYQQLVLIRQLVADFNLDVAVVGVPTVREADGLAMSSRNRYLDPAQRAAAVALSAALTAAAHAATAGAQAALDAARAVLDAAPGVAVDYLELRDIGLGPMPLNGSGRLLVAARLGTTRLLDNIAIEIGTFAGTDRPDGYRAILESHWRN
# PROCEDURE_DETAILS: Coupled enzyme confirmation of inhibitors against recombinant Mtb PanC (AID 375);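 also: 0% = full reaction with vehicle and 100% = no enzyme background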
# APPLIED_CONDITIONS: coupled enzyme assay; at 10 µM, stronger effect = higher value
Answers are plain numbers, in %.

Record excerpt, results attached:
MOLECULE	NUMERIC_VALUE
Clc1cccc(-c2nnc3sc(-c4ccccc4)nn23)c1	0
CCOC(=O)C1=C(N)OC2=C(C(=O)CC(C)(C)C2)C1c1ccco1 (stereo unspecified)	5
O=C(c1ccc(COc2c(F)c(F)c(F)c(F)c2F)o1)N1CCOCC1	4
CCc1ccc(C2CC(c3cccc(OC)c3)n3nc(N)nc3N2)cc1 (stereo unspecified)	3
CCOC(=O)C1=C(c2ccccc2)N2CCN=C2S1	3
COC(=O)C1=C(C)NC(=O)C1(Nc1ccc(Cl)cn1)C(F)(F)F (stereo unspecified)	0
CCOC(=O)c1c(-c2cccs2)csc1NC(=O)CCCC(=O)O	0
CCOCCCNS(=O)(=O)c1ccc2c(c1)oc(=O)n2CC(=O)OCC	8
CN1CCc2nc(SCCOc3ccccc3)c(C#N)cc2C1	0
Cc1[nH]nc(N=CC2=C(O)CC(C)(C)CC2=O)c1-c1ccc(Cl)cc1	0

The record that follows has no inhibition shown yet.
Give the measured inhibition of CCOC(=O)c1c2n(c3ccc(O)cc13)CCCCC2 .
0
